- System: Muscarinic acetylcholine receptor M1
- Assay overview: M1 muscarinic receptor agonists, primary screen, CHO-M1 cells, Fluo-4 calcium, agonist mode (AID 626)
- Measurement parameters: Fluo-4 calcium fluorescence, at 10 µM, stronger effect = higher value
About 1,900 (3%) of roughly 64,000 compounds were called active. The sample holds actives, similar compounds and a random draw of the others, so the mix is not that of the screen.
Rule: yes (1) for B-score not less than 0.004, no (0) for anything less.

| Compound | Assay target | Label class |
| --- | --- | --- |
| CCC(=O)N1c2ccc(S(=O)(=O)CCC(=O)N3CCN(c4ccccc4)CC3)cc2CC1C (stereo unspecified) | Muscarinic acetylcholine receptor M1 | no (0) |
| CC(=O)Nc1ccc(NC(=O)CN2CCCC(C)C2)c(Cl)c1 (stereo unspecified) | Muscarinic acetylcholine receptor M1 | yes (1) |

Given `CCOc1cc(/C=N/O)cc(Br)c1OC` , state whether its B-score is at least 0.004.
yes (1)

Given `Cc1ccc(C(=O)Nc2ccccc2C(=O)NC2CCCCC2)cc1S(=O)(=O)N1CCOCC1` , state whether its B-score is at least 0.004.
no (0)

Given CC(NC(=O)CSc1nc2c(cc1C#N)CN(C)CC2)c1ccccc1 (stereo unspecified) , state whether its B-score is at least 0.004.
yes (1)

Given `O=C(CNS(=O)(=O)c1ccc(Br)s1)NCc1ccc2c(c1)OCO2` , state whether its B-score is at least 0.004.
no (0)

Given `COc1ccc(NC(C)=O)cc1NC(=O)CN1CCN(C2c3ccccc3-c3ccccc32)CC1` , state whether its B-score is at least 0.004.
yes (1)

Given `CCOC(=O)c1c(C2CC2)csc1NC(=O)CSCc1c(C)noc1C` , state whether its B-score is at least 0.004.
yes (1)

Given CC1(C)CC(O)C(CCC(O)c2ccccc2)C(C)(C)N1 (stereo unspecified) , state whether its B-score is at least 0.004.
yes (1)

Given `COc1ccc(NS(=O)(=O)c2ccc(NC(C)=O)cc2)cc1OC` , state whether its B-score is at least 0.004.
yes (1)

Given `O=S(=O)(Nc1ccccn1)c1ccc(Oc2ccccc2)cc1` , state whether its B-score is at least 0.004.
no (0)

# credit: PubChem BioAssay AID626
